target: Lethal factor (Bacillus anthracis)
Sequence (P15917 whole entry): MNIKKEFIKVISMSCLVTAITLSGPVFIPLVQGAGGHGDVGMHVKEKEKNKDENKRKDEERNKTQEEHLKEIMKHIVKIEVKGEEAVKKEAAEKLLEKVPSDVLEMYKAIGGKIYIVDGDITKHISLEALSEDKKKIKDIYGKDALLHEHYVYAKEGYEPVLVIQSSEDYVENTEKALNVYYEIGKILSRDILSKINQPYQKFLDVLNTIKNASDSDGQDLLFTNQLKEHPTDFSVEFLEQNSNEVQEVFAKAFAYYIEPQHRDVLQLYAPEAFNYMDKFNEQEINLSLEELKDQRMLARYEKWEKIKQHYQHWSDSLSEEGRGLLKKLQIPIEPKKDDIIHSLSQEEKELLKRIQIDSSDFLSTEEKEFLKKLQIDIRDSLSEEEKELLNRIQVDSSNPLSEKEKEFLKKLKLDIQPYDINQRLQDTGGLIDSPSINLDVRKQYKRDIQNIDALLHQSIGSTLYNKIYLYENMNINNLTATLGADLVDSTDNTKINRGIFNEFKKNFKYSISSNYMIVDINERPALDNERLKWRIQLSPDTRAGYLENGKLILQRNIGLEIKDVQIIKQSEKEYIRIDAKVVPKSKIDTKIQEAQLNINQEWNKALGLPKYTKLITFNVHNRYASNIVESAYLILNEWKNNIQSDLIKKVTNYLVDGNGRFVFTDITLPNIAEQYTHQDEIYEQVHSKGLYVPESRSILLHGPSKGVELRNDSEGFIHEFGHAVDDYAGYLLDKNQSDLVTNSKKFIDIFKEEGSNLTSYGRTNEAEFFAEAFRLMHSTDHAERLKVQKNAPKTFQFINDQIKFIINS
Strictly below 70 nM in IC50: 1. Otherwise: -1.

Below, 9 compounds whose answers are already recorded.
Quick check: does COc1ccc(S(=O)(=O)N[C@@H]2CCN(O)C2=O)cc1 have IC50 under 70 nM?
-1

Quick check: does Cc1cc(S(=O)(=O)N[C@H](CCOCCN)C(=O)NO)ccc1F have IC50 under 70 nM?
1

Quick check: does Cc1cc(S(=O)(=O)N[C@@H](C(=O)NO)C(C)(C)C)ccc1F have IC50 under 70 nM?
-1

Quick check: does Cc1cc(S(=O)(=O)N[C@@H](C(=O)NO)C(C)C)ccc1O have IC50 under 70 nM?
-1

Quick check: does Cc1cc(S(=O)(=O)N[C@H](CCNC(=O)[C@H](C)N)C(=O)NO)ccc1F have IC50 under 70 nM?
1

Quick check: does Cc1cc(S(=O)(=O)N[C@H](C)C(=O)NO)ccc1F have IC50 under 70 nM?
-1

Quick check: does CC(=O)N(Cc1cccnc1)[C@@H](C(=O)NO)C(C)C have IC50 under 70 nM?
-1

Quick check: does COc1ccc(S(=O)(=O)N(Cc2ccncc2)[C@@H](C(=O)NO)C(C)C)cc1 have IC50 under 70 nM?
-1

Quick check: does CC[C@@H](C)[C@@H](NS(=O)(=O)c1ccc(F)c(C)c1)C(=O)NO have IC50 under 70 nM?
1

Okay, next one:
Quick check: does Cc1cc(S(=O)(=O)N[C@@H](C(=O)NO)C2CCCC2)ccc1F have IC50 under 70 nM?
1

====

target: Lethal factor (Bacillus anthracis)
pIC50: −log10 of the molar value.
pIC50 of 5 or higher: met. Under 5: not met.

I'd appreciate it if you could say whether COc1ccc(S(=O)(=O)N[C@@H]2CCN(O)C2=O)cc1 has pIC50 at least equal to 5.
not met

I'd appreciate it if you could say whether Cc1cc(S(=O)(=O)N[C@@H](C(=O)NO)C(C)C)ccc1O has pIC50 at least equal to 5.
not met

I'd appreciate it if you could say whether Cc1ccc(S(=O)(=O)N[C@@H](C(=O)NO)C(C)C)cc1 has pIC50 at least equal to 5.
not met

I'd appreciate it if you could say whether Cc1cc(S(=O)(=O)N[C@@H](C(=O)NO)c2ccccc2)ccc1F has pIC50 at least equal to 5.
met

I'd appreciate it if you could say whether Cc1cc(S(=O)(=O)N[C@H](C)C(=O)NO)ccc1F has pIC50 at least equal to 5.
met

I'd appreciate it if you could say whether Cc1cc(S(=O)(=O)N[C@@H](C(=O)NO)C2CCC2)ccc1F has pIC50 at least equal to 5.
met

Okay, next one:
I'd appreciate it if you could say whether Cc1cc(S(=O)(=O)N[C@H](CCOCCN)C(=O)NO)ccc1F has pIC50 at least equal to 5.
met
